Reference for the values: paper PMC10535741

protocol summary: Self-assembling properties by dynamic light scattering (DLS)
Type: physicochemical
condition details: 0.1 mM in aqueous medium, ethanol injection, freshly prepared
quantity name: PDI (polydispersity index)

{"structure smiles string": "CCCCCCCCCCCC[n+]1ccc(C=Cc2cc3c4c(c2)CCCN4CCC3)cc1.[Br-]", "result": "0.286 ± 0.030"}
{"structure smiles string": "CCCCCCCCCCCCCCCC[n+]1ccc(C=CC=Cc2ccc(OC)cc2)cc1.[Br-]", "result": "0.218 ± 0.026"}
{"structure smiles string": "CCCCCCCCCCCC[n+]1ccc(C=Cc2cc(OC)c(OC)c(OC)c2)cc1.[Br-]", "result": "0.331 ± 0.261"}
{"structure smiles string": "CCCCCCCCCCCCCCCC[n+]1ccc(C=CC=Cc2cc3c4c(c2)CCCN4CCC3)cc1.[Br-]", "result": "0.260 ± 0.011"}

###

Test system: HT-1080 (human connective tissue fibrosarcoma)
protocol summary: MTT cytotoxicity assay, HT-1080
Format: cell-based
condition details: Homo sapiens, HT-1080; 72 h treatment, MTT; read-out: IC50 (µg/mL) HT-1080
Protocol: The evaluation of the in vitro cytotoxicity (IC50, half maximal inhibitory concentration) of the abovementioned compounds and their structural derivatives was assessed using the standard colorimetric 3-(4,5-dimethylthiazol-2-yl)-2,5-diphenyltetrazolium bromide (MTT) assay on two monolayer tumour cell lines, namely HT-1080 (human connective tissue fibrosarcoma) and MH-22A (mouse hepatocarcinoma). […]
quantity name: IC50 (µg/mL)

{"structure smiles string": "CCCCCCCCCCCCCCCC[n+]1ccc(C=CC=Cc2cc3c4c(c2)CCCN4CCC3)cc1.[Br-]", "unit string": "µg/mL", "readout number": 1}
{"structure smiles string": "CCCCCCCCCCCCCCCC[n+]1ccc(C=CC=Cc2ccc(OC)cc2)cc1.[Br-]", "unit string": "µg/mL", "readout number": 0.2}
{"structure smiles string": "C(C=Cc1cc2c3c(c1)CCCN3CCC2)=Cc1cc[n+](CCC[n+]2ccc(C=CC=Cc3cc4c5c(c3)CCCN5CCC4)cc2)cc1.[Br-].[Br-]", "unit string": "µg/mL", "readout number": 6}
{"structure smiles string": "CCCCCCCCCCCC[n+]1ccc(C=Cc2cc(OC)c(OC)c(OC)c2)cc1.[Br-]", "unit string": "µg/mL", "readout number": 0.22}
{"structure smiles string": "CCCCCCCCCCCC[n+]1ccc(C=Cc2cc3c4c(c2)CCCN4CCC3)cc1.[Br-]", "unit string": "µg/mL", "readout number": 1.4}

###

protocol summary: in vitro
Format: cell-based, human
condition details: human; cancer cell line, MTT, 72 h; read-out: Cytotoxicity IC50 Saos-2

{"structure smiles string": "CCCCCCCCCCCC[n+]1ccc(C=Cc2cc3c4c(c2)CCCN4CCC3)cc1.[Br-]", "IC50 at 72 h": "0.79 mg/L"}
{"structure smiles string": "CCCCCCCCCCCCCCCC[n+]1ccc(C=CC=Cc2cc3c4c(c2)CCCN4CCC3)cc1.[Br-]", "IC50 at 72 h": "3.6 mg/L"}
{"structure smiles string": "CCCCCCCCCCCC[n+]1ccc(C=Cc2cc(OC)c(OC)c(OC)c2)cc1.[Br-]", "IC50 at 72 h": "0.37 mg/L"}

###

protocol summary: in vitro
Assay type: cell-based, rat
condition details: rat
quantity name: IC50 at 72 h (µg/mL)

{"compound": "CCCCCCCCCCCCCCCC[n+]1ccc(C=CC=Cc2ccc(OC)cc2)cc1.[Br-] [Compound 6c]", "unit string": "µg/mL", "readout number": 0.6}

###

protocol summary: Photoluminescence quantum yield (PLQY)
Format: physicochemical
condition details: DMSO solution
Quick reference: PLQY, % of the listed items.

{"structure smiles string": "CCCCCCCCCCCCCCCC[n+]1ccc(C=CC=Cc2ccc(OC)cc2)cc1.[Br-]", "PLQY, % [%]": 0.1}
{"structure smiles string": "CCCCCCCCCCCC[n+]1ccc(C=Cc2cc3c4c(c2)CCCN4CCC3)cc1.[Br-]", "PLQY, % [%]": 0.5}
{"structure smiles string": "CCCCCCCCCCCC[n+]1ccc(C=Cc2cc(OC)c(OC)c(OC)c2)cc1.[Br-]", "PLQY, % [%]": 15.1}
{"structure smiles string": "CCCCCCCCCCCCCCCC[n+]1ccc(C=Cc2cc(OC)c(OC)c(OC)c2)cc1.[Br-]", "PLQY, % [%]": 12.2}
{"structure smiles string": "CCCCCCCCCCCCCCCC[n+]1ccc(C=CC=Cc2cc3c4c(c2)CCCN4CCC3)cc1.[Br-]", "PLQY, % [%]": 0.7}

###

# log ε per entry
protocol summary: UV/Vis absorption spectra in DMSO
Type: physicochemical
condition details: 0.33 mM for 6a,b,d,f,g, 5 mM for 6c,e

{"compound": "CCCCCCCCCCCCCCCC[n+]1ccc(C=CC=Cc2cc3c4c(c2)CCCN4CCC3)cc1.[Br-] [Compound 6e]", "log ε": 4.02}
{"compound": "CCCCCCCCCCCCCCCC[n+]1ccc(C=Cc2cc(OC)c(OC)c(OC)c2)cc1.[Br-] [Compound 6b]", "log ε": 5.23}
{"compound": "CCCCCCCCCCCC[n+]1ccc(C=Cc2cc(OC)c(OC)c(OC)c2)cc1.[Br-] [Compound 6a]", "log ε": 5.46}
{"compound": "CCCCCCCCCCCCCCCC[n+]1ccc(C=CC=Cc2ccc(OC)cc2)cc1.[Br-] [Compound 6c]", "log ε": 4.26}

###

protocol summary: UV/Vis absorption spectra in DMSO
Assay type: physicochemical
condition details: 0.33 mM for 6a,b,d,f,g, 5 mM for 6c,e
Recorded abs. max., λ, nm by entry

{"structure smiles string": "CCCCCCCCCCCCCCCC[n+]1ccc(C=CC=Cc2ccc(OC)cc2)cc1.[Br-]", "unit string": "nm", "abs. max., λ, nm": 408}
{"structure smiles string": "CCCCCCCCCCCCCCCC[n+]1ccc(C=Cc2cc(OC)c(OC)c(OC)c2)cc1.[Br-]", "unit string": "nm", "abs. max., λ, nm": 385}
{"structure smiles string": "CCCCCCCCCCCC[n+]1ccc(C=Cc2cc(OC)c(OC)c(OC)c2)cc1.[Br-]", "unit string": "nm", "abs. max., λ, nm": 384}
{"structure smiles string": "CCCCCCCCCCCCCCCC[n+]1ccc(C=CC=Cc2cc3c4c(c2)CCCN4CCC3)cc1.[Br-]", "unit string": "nm", "abs. max., λ, nm": 520}

###

# reported LD50 at 24 h; entries follow
protocol summary: Basal cytotoxicity, neutral red uptake (NRU) assay, with LD50 estimated from IC50
Format: cell-based
condition details: mouse; estimated from in vitro NRU IC50 (24 h); read-out: Basal cytotoxicity (NIH3T3) LD50 mM/kg

{"molecule": "CCCCCCCCCCCCCCCC[n+]1ccc(C=CC=Cc2ccc(OC)cc2)cc1.[Br-] [Compound 6c]", "LD50 at 24 h, µmol/kg": 160}
{"molecule": "CCCCCCCCCCCC[n+]1ccc(C=Cc2cc(OC)c(OC)c(OC)c2)cc1.[Br-] [Compound 6a]", "LD50 at 24 h, µmol/kg": 500}
{"molecule": "CCCCCCCCCCCCCCCC[n+]1ccc(C=CC=Cc2cc3c4c(c2)CCCN4CCC3)cc1.[Br-] [Compound 6e]", "LD50 at 24 h, µmol/kg": 800}
{"molecule": "CCCCCCCCCCCC[n+]1ccc(C=Cc2cc3c4c(c2)CCCN4CCC3)cc1.[Br-] [Compound 6d]", "LD50 at 24 h, µmol/kg": 300}

###

protocol summary: in vitro
Format: cell-based, human
condition details: human; cancer cell line, MTT, 72 h; read-out: Cytotoxicity IC50 A-549
quantity name: IC50 at 72 h (µg/mL)

{"compound": "CCCCCCCCCCCC[n+]1ccc(C=Cc2cc(OC)c(OC)c(OC)c2)cc1.[Br-] [Compound 6a]", "readout number": 0.87}
{"compound": "CCCCCCCCCCCC[n+]1ccc(C=Cc2cc3c4c(c2)CCCN4CCC3)cc1.[Br-] [Compound 6d]", "readout number": 0.055}
{"compound": "CCCCCCCCCCCCCCCC[n+]1ccc(C=CC=Cc2cc3c4c(c2)CCCN4CCC3)cc1.[Br-] [Compound 6e]", "readout number": 3}

###

protocol summary: in vitro
Type: cell-based, human
condition details: human; cancer cell line, MTT, 72 h; read-out: Cytotoxicity IC50 HeLa
Recorded IC50 at 72 h, one value per entry.
quantity name: IC50 at 72 h (µg/mL)

{"compound": "CCCCCCCCCCCC[n+]1ccc(C=Cc2cc(OC)c(OC)c(OC)c2)cc1.[Br-] [Compound 6a]", "readout number": 0.59}
{"compound": "CCCCCCCCCCCC[n+]1ccc(C=Cc2cc3c4c(c2)CCCN4CCC3)cc1.[Br-] [Compound 6d]", "readout number": 0.055}
{"compound": "CCCCCCCCCCCCCCCC[n+]1ccc(C=CC=Cc2cc3c4c(c2)CCCN4CCC3)cc1.[Br-] [Compound 6e]", "readout number": 1.3}
